Source listed as paper PMC9414910.

Uptake Spleen, Mean listing for selected molecules.
system: 22Rv1 tumor-bearing mice; test: Biodistribution in 22Rv1 tumor-bearing mice; settings: 30 min p.i., 0.74 MBq, n = 3
Give the value; after it, write the unit.

Field Uptake Spleen, Mean (entry O=C([O-])CN1CCN(CC(=O)[O-])CCN(CC(=O)NCc2ccc(C(=O)NC(Cc3cnc4ccccc4c3)C(=O)NCCCCC(NC(=O)NC(CCC(=O)O)C(=O)O)C(=O)O)cc2)CCN(CC(=O)O)CC1.[68Ga+3] (stereo not shown) [[^68Ga]Ga-PSMA-Q-3] ) reads 0.94 ID%/g

Next:
Just so you know, measured Uptake Spleen, Mean for O=C([O-])CN1CCN(CC(=O)[O-])CCN(CC(=O)NCCCCCC(=O)NC(Cc2cnc3ccccc3c2)C(=O)NCCCCC(NC(=O)NC(CCC(=O)O)C(=O)O)C(=O)O)CCN(CC(=O)O)CC1.[68Ga+3] (stereo not shown) [[^68Ga]Ga-PSMA-Q-2] came out at 1.41 ID%/g

Item: O=C([O-])CN1CCN(CC(=O)[O-])CCN(CC(=O)NCCCCC(=O)NC(Cc2cnc3ccccc3c2)C(=O)NCCCCC(NC(=O)NC(CCC(=O)O)C(=O)O)C(=O)O)CCN(CC(=O)O)CC1.[68Ga+3] (stereo not shown) [[^68Ga]Ga-PSMA-Q-1] | Uptake Spleen, Mean: 1.79 ID%/g

* * *

tested on: 22Rv1 tumor-bearing mice; experiment: Biodistribution in 22Rv1 tumor-bearing mice; settings: 10 min p.i., 0.74 MBq, n = 3
Uptake Liver, Mean listing for selected compounds.
Write the answer as a number in ID%/g, unit excluded.

Below, 6 compounds whose answers are already recorded.
Record O=C([O-])CN1CCN(CC(=O)[O-])CCN(CC(=O)NCCCCCC(=O)NC(Cc2cnc3ccccc3c2)C(=O)NCCCCC(NC(=O)NC(CCC(=O)O)C(=O)O)C(=O)O)CCN(CC(=O)O)CC1.[68Ga+3] (stereo not shown) [[^68Ga]Ga-PSMA-Q-2] . Reported Uptake Liver, Mean: 1.62

get_value(item= O=C([O-])CN1CCN(CC(=O)[O-])CCN(CC(=O)NCC2CCC(C(=O)NC(Cc3cnc4ccccc4c3)C(=O)NCCCCC(NC(=O)NC(CCC(=O)O)C(=O)O)C(=O)O)CC2)CCN(CC(=O)O)CC1.[68Ga+3] (stereo not shown) [[^68Ga]Ga-PSMA-Q] , readout=Uptake Liver, Mean) returns 2.13

Please fill in: Uptake Liver, Mean reported for O=C([O-])CN(CCN(CC(=O)[O-])Cc1cc(CCC(=O)NCCCCCC(=O)NCCCC[C@H](NC(=O)N[C@@H](CCC(=O)O)C(=O)O)C(=O)O)ccc1[O-])Cc1cc(CCC(=O)O)ccc1[O-].[68Ga+3].[OH3+] [[^68Ga]Ga-PSMA-11, reference compound] = 1.53

Record summary for O=C([O-])CN1CCN(CC(=O)[O-])CCN(CC(=O)NCC2CCC(C(=O)NC(Cc3ccc4ccccc4c3)C(=O)NCCCCC(NC(=O)NC(CCC(=O)O)C(=O)O)C(=O)O)CC2)CCN(CC(=O)O)CC1.[68Ga+3] (stereo not shown) [[^68Ga]Ga-PSMA-617, reference compound] : reported Uptake Liver, Mean = 1.89

Briefly, Uptake Liver, Mean measured for O=C([O-])CN1CCN(CC(=O)[O-])CCN(CC(=O)NCCCCC(=O)NC(Cc2cnc3ccccc3c2)C(=O)NCCCCC(NC(=O)NC(CCC(=O)O)C(=O)O)C(=O)O)CCN(CC(=O)O)CC1.[68Ga+3] (stereo not shown) [[^68Ga]Ga-PSMA-Q-1] : 2.38

Uptake Liver, Mean for O=C([O-])CN1CCN(CC(=O)[O-])CCN(CC(=O)NCC2CCC(C(=O)NC(Cc3ccncc3)C(=O)NCCCCC(NC(=O)NC(CCC(=O)O)C(=O)O)C(=O)O)CC2)CCN(CC(=O)O)CC1.[68Ga+3] (stereo not shown) [[^68Ga]Ga-PSMA-4PY] is 1.53

***
O=C([O-])CN1CCN(CC(=O)[O-])CCN(CC(=O)NCc2ccc(C(=O)NC(Cc3cnc4ccccc4c3)C(=O)NCCCCC(NC(=O)NC(CCC(=O)O)C(=O)O)C(=O)O)cc2)CCN(CC(=O)O)CC1.[68Ga+3] (stereo not shown) [[^68Ga]Ga-PSMA-Q-3] yielded Uptake Liver, Mean of 1.53
